target: CDK1/CycB1 (Homo sapiens, UniProt P06493); assay: Kinase profiling; type: biochemical
Sequence (P06493 whole entry): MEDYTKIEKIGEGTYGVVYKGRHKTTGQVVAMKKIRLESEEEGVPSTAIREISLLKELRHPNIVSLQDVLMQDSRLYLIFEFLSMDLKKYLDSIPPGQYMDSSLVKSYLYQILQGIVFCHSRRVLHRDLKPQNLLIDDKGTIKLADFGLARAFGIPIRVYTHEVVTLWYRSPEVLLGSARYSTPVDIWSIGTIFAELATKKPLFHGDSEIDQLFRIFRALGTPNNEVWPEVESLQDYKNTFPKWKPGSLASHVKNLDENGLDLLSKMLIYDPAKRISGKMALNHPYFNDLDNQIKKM
Sequence (P14635 whole entry partner): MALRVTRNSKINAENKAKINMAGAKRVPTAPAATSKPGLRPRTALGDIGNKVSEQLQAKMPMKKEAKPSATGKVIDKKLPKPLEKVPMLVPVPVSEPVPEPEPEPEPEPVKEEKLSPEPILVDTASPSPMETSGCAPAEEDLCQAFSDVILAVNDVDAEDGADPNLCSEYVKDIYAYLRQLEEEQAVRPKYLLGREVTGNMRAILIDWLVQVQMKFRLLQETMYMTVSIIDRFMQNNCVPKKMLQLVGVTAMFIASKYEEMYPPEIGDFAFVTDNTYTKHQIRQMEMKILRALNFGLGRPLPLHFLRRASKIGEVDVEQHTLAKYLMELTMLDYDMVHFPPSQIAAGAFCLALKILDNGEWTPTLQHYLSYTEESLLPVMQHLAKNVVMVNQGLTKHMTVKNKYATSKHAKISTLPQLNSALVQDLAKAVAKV
Assay Readout: IC50 (µM)
Give the value, in units of µM, as a plain number.

Input line: System CDK1/CycB1 (Homo sapiens, UniProt P06493). Read-out IC50. Item O=c1ccc2cnc(Nc3ccc(N4CCC(CCCO)CC4)cc3)nc2n1C1CC2CCC1C2 (stereo not shown) [PD-0183812, reference compound] . Report value.
Output line: 32.1

###

test: Metabolic stability in microsomes; assay type: in vitro ADME; settings: mouse, 60-90 min test, read-out: Metabolic stability, Mouse microsomes: Clearance
Assay Readout: microsomal CLint
Units required after the number.

# example entries with known answers
Input line: Answer with reported microsomal CLint of CC(=O)c1c(C)c2cnc(Nc3ccc(N4CCC(CCCO)CC4)cc3)nc2n(C2CCCC2)c1=O [PS009]
Output line: 46.9 µL/min/mg

Input line: Answer with reported microsomal CLint of CC(O)CCC1CCN(c2ccc(Nc3ncc4ccc(=O)n([C@@H]5CC6CCC5C6)c4n3)cc2)CC1 (stereo partly shown) [PS004]
Output line: 54.5 µL/min/mg

Input line: Answer with reported microsomal CLint of CC(O)COC1CCN(c2ccc(Nc3ncc4ccc(=O)n([C@@H]5CC6CCC5C6)c4n3)cc2)CC1 (stereo partly shown) [PS006]
Output line: 185 µL/min/mg

Now take the following molecule into account.
Input line: Answer with reported microsomal CLint of CC(=O)c1c(C)c2cnc(Nc3ccc(N4CCNCC4)cn3)nc2n(C2CCCC2)c1=O [Palbociclib, reference compound]
Output line: 18.3 µL/min/mg
